B1: library; numbered along this chain (parent)
chain: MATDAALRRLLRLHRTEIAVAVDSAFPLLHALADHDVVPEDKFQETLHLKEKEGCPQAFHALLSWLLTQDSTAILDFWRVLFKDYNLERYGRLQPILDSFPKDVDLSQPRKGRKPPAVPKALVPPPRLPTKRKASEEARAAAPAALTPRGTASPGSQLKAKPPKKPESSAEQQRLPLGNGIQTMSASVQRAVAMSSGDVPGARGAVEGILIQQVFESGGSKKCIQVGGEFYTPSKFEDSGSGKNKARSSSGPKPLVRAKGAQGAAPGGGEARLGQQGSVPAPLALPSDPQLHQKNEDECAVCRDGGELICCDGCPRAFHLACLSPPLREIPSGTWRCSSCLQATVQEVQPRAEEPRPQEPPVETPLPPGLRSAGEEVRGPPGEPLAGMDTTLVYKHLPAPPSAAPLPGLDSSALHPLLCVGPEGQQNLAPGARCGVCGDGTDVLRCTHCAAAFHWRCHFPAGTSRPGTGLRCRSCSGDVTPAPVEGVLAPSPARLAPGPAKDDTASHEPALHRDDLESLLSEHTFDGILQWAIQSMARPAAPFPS

# Variants of: B1
# methodDescription: AIRE transcriptional activation functional score (insulin promoter-GFP; nonsense median 0, synonymous median 1) (normalised score); higher = higher AIRE activity (more reporter activation)
# statedConditions: with insulin promoter-GFP reporter in HEK293
readoutType: AIRE transcriptional activation functional score

L341K; 0.983
E171D; 0.998
L63I; 0.588
S506T; 0.197

input: Can you look up the measured AIRE transcriptional activation functional score of L28F for me?
output: -0.285

input: Can you look up the measured AIRE transcriptional activation functional score of S248P for me?
output: 1.33

input: Can you look up the measured AIRE transcriptional activation functional score of G374C for me?
output: 1.55

input: Can you look up the measured AIRE transcriptional activation functional score of S234K for me?
output: 0.869

input: Can you look up the measured AIRE transcriptional activation functional score of Q173T for me?
output: 1.44

input: Can you look up the measured AIRE transcriptional activation functional score of E485P for me?
output: 1.25

input: Can you look up the measured AIRE transcriptional activation functional score of T447A for me?
output: 1.02

input: Can you look up the measured AIRE transcriptional activation functional score of R12D for me?
output: -0.77

input: Can you look up the measured AIRE transcriptional activation functional score of Y90F for me?
output: 0.00136

input: Can you look up the measured AIRE transcriptional activation functional score of H507A for me?
output: 0.96

input: Can you look up the measured AIRE transcriptional activation functional score of M536C for me?
output: 1.08

src = the supplement of paper PMC12667976
